- System: c-myc in Human AML MV4-11 cells
- EXPERIMENT: Inhibition of cMYC expression in cancer cell lines (mRNA, real-time PCR)
- Assay type: cell-based
- TEST_PARAMETERS: Homo sapiens, 3 h, cMYC mRNA normalized to Cyclophilin
pIC50: −log10 of the molar value.
Exercise: state measured pIC50 for each of the compounds provided.

Below are worked cases with known answers.
| COMPOUND | pIC50 |
| --- | --- |
| Cc1noc(C)c1-c1c[nH]c(=O)c(NC(C)c2ccccn2)c1 (stereo not shown) [Example 20] | 5.52 to 6.52 |
| Cc1noc(C)c1-c1c[nH]c(=O)c(NCc2ccncc2)c1 [Example 11] | 4.52 to 5.52 |
| Cc1noc(C)c1-c1c[nH]c(=O)c(OCc2ccccc2)c1 [Example 14] | 4.52 to 5.52 |

# batch size: 8; output pIC50 per entry
1. Cc1noc(C)c1-c1c[nH]c(=O)c(NCc2cccnc2)c1 [Example 23]
2. Cc1noc(C)c1-c1c[nH]c(=O)c(NC(C)c2ccc(Cl)cc2)c1 (stereo not shown) [Example 18]
3. Cc1noc(C)c1-c1c[nH]c(=O)c(NCc2ccc3ccccc3n2)c1 [Example 35]
4. Cc1noc(C)c1-c1c[nH]c(=O)c(OCc2ccc(F)cc2)c1 [Example 27]
5. Cc1noc(C)c1-c1c[nH]c(=O)c(NCc2ccc3ccccc3c2)c1 [Example 33]
6. Cc1noc(C)c1-c1c[nH]c(=O)c(NCc2ccc(Cl)cc2)c1 [Example 8]
7. Cc1noc(C)c1Nc1cc(-c2c(C)noc2C)c[nH]c1=O [Example 34]
8. Cc1noc(C)c1-c1c[nH]c(=O)c(Nc2cccc(F)c2)c1 [Example 3]

RESULT:
1: 5.52 to 6.52; 2: 5.52 to 6.52; 3: 4.52 to 5.52; 4: 5.52 to 6.52; 5: 4.52 to 5.52; 6: 4.52 to 5.52; 7: 5.52 to 6.52; 8: 5.52 to 6.52

# batch size: 3; output pIC50 per entry
1. Cc1noc(C)c1-c1c[nH]c(=O)c(NCc2ccc(C#N)cc2)c1 [Example 9]
2. Cc1noc(C)c1-c1c[nH]c(=O)c(NCc2ccccc2)c1 [Example 4]
3. Cc1noc(C)c1-c1c[nH]c(=O)c(N[C@@H](C)c2ccccn2)c1 (single isomer, unassigned) [Example 41]

RESULT:
1: 5.52 to 6.52; 2: 5.52 to 6.52; 3: 4.52 to 5.52
